test system: CEM cells HIV-1 protection, formazan growth assay; test: NCI AIDS Antiviral Assay; conditions: measured here: growth of uninfected CEM cells
pIC50: −log10 of the molar value.
measured.endpoint: pIC50

{"compound": "N#CN=C(N)NC#N", "measured.endpoint": "pIC50", "result.modifier": "<", "recorded.measurement": 2.77}
{"compound": "Cc1cn(C2CC(C/C=[N+](\\[O-])CC3OC(n4cc(C)c(=O)[nH]c4=O)CC3O[Si](C)(C)C(C)(C)C)C(CO[Si](C)(C)C(C)(C)C)O2)c(=O)[nH]c1=O (stereo not given)", "measured.endpoint": "pIC50", "result.modifier": "=", "recorded.measurement": 4.44}
{"compound": "CCCCCCCC(=O)c1c(O)c2ccccc2oc1=O", "measured.endpoint": "pIC50", "result.modifier": "=", "recorded.measurement": 4.57}
{"compound": "c1ccc(-c2ccccn2)nc1", "measured.endpoint": "pIC50", "result.modifier": "=", "recorded.measurement": 4.56}
{"compound": "O=C(CBr)OCCCS(=O)(=O)O", "measured.endpoint": "pIC50", "result.modifier": "<", "recorded.measurement": 3.70}
{"compound": "CCOC(=O)NC(OCc1ccccc1)(C(=O)OC)C(F)(F)F (stereo not given)", "measured.endpoint": "pIC50", "result.modifier": "<", "recorded.measurement": 3.70}
{"compound": "CCOP(=O)(OCC)C(Nc1ccc(C(=O)O)cc1)c1ccc(C(Nc2ccc(C(=O)O)cc2)P(=O)(OCC)OCC)cc1 (stereo not given)", "measured.endpoint": "pIC50", "result.modifier": "<", "recorded.measurement": 3.70}
{"compound": "COc1cc(/C=C2/SC(c3ccccc3)N(c3cccc([N+](=O)[O-])c3)C2=O)cc(OC)c1OC (stereo not given)", "measured.endpoint": "pIC50", "result.modifier": "=", "recorded.measurement": 3.97}
{"compound": "CCCNC1=C(C(=O)OCC)C(=O)CO1", "measured.endpoint": "pIC50", "result.modifier": "<", "recorded.measurement": 4.47}
{"compound": "COc1ccc(-c2nc(-c3ccc(OC)cc3)n(-c3ccccc3)n2)cc1", "measured.endpoint": "pIC50", "result.modifier": "=", "recorded.measurement": 4.23}

====

test system: CEM cells HIV-1 protection, formazan growth assay; experiment: NCI AIDS Antiviral Assay; details: measured here: growth of uninfected CEM cells
pIC50: −log10 of the molar value.
Quick reference: pIC50 of the listed items.

{"compound": "CCOC(=O)c1nc(SC)sc1NC(=O)c1ccccc1N", "target.of.assay": "CEM cells HIV-1 protection, formazan growth assay", "pIC50": "< 3.70"}
{"compound": "Cc1ccc(N=C[N-]c2ccc(C)cc2)cc1.Cc1ccc(N=C[N-]c2ccc(C)cc2)cc1.O=C([O-])C(F)(F)F.O=C([O-])C(F)(F)F.[OH3+].[OH3+].[Rh+2].[Rh+2]", "target.of.assay": "CEM cells HIV-1 protection, formazan growth assay", "pIC50": "< 4.85"}
{"compound": "CCn1c(SCC(=O)NNC(=S)Nc2ccc(F)cc2)nc2ccccc2c1=O", "target.of.assay": "CEM cells HIV-1 protection, formazan growth assay", "pIC50": 3.89}
{"compound": "C[N+](C)(C)CC1C2C=CC(C2)C1CO (stereo unspecified)", "target.of.assay": "CEM cells HIV-1 protection, formazan growth assay", "pIC50": "< 3.56"}
{"compound": "CCCN=C(N)NC#N", "target.of.assay": "CEM cells HIV-1 protection, formazan growth assay", "pIC50": "< 3.15"}
{"compound": "Cc1cc(C)c(NS(=O)c2cccc(Cl)c2)c(C)c1 (stereo unspecified)", "target.of.assay": "CEM cells HIV-1 protection, formazan growth assay", "pIC50": "< 3.91"}

Sourced from PubChem BioAssay AID179
